Entries and their ΔTm
- MEASURED TARGET: Calcium/calmodulin-dependent protein kinase type 1G (Homo sapiens)
Write the answer as a number in °C, unit excluded.

C[S+]([O-])c1ccc(-c2nc(-c3ccc(F)cc3)c(-c3ccncc3)[nH]2)cc1 (stereo unspecified) [SB-203580]	-0.2
COc1nccc(-c2c(-c3ccc(F)cc3)ncn2[C@H]2CC[C@H](O)CC2)n1	0.2
NC(=O)c1ccc2[nH]c(-c3ccc(Oc4ccc(Cl)cc4)cc3)nc2c1	2.6
O=C1c2ccccc2-c2n[nH]c3cccc1c23	2
CCOc1ccc(/C=C2/SC(=O)N(CCN)C2=O)cc1 [HIAZOLIDINEDIONE1]	0.2
O=C1NC(=O)C(c2cn(CCCn3ccnc3)c3ccccc23)=C1Nc1ccccc1	1
Cc1c2ccncc2c(C)c2c1[nH]c1ccccc12 [ELLIPTECINE]	0.3
N=C(N)NCCNS(=O)(=O)c1cccc2cnccc12	-0.4

For CN1CCC(Nc2ncc3ncnc(Nc4ccc(F)c(Cl)c4)c3n2)CC1 [FALNIDAMOL] on Calcium/calmodulin-dependent protein kinase type 1G (Homo sapiens), measured ΔTm was 0.5

For N#C/C(=C1/Nc2ccccc2S1)c1ccnc(NCCc2cccnc2)n1 on Calcium/calmodulin-dependent protein kinase type 1G (Homo sapiens), measured ΔTm was 2.3

For CCN1/C(=C/C(C)=O)Sc2ccc(OC)cc21 on Calcium/calmodulin-dependent protein kinase type 1G (Homo sapiens), measured ΔTm was -0.5

For O=C1Cc2c([nH]c3ccc(Br)cc23)-c2ccccc2N1 [KENPAULLONE] on Calcium/calmodulin-dependent protein kinase type 1G (Homo sapiens), measured ΔTm was 0.3

For CN(C)S(=O)(=O)c1ccc2c(c1)/C(=C/c1cc3c([nH]1)CCCC3)C(=O)N2 on Calcium/calmodulin-dependent protein kinase type 1G (Homo sapiens), measured ΔTm was 0.2

For COc1cc(C[C@H]2C(=O)OC[C@@H]2Cc2ccc(OC)c(OC)c2)ccc1O [ARCTIGENIN] on Calcium/calmodulin-dependent protein kinase type 1G (Homo sapiens), measured ΔTm was -0.3

For Nc1cc2ncnc(Nc3cccc(Br)c3)c2cc1N on Calcium/calmodulin-dependent protein kinase type 1G (Homo sapiens), measured ΔTm was 0.5

For CN(c1cccnc1)c1cc2c(Nc3ccc(F)c(Cl)c3)c(C#N)cnc2cn1 on Calcium/calmodulin-dependent protein kinase type 1G (Homo sapiens), measured ΔTm was 2.4

For O=c1c2ccccc2[nH]c(=S)n1CCN1CCC(=C(c2ccc(F)cc2)c2ccc(F)cc2)CC1 [DIACYLGLYCEROL KINASE INHIBITOR II] on Calcium/calmodulin-dependent protein kinase type 1G (Homo sapiens), measured ΔTm was 0.1

For Cc1nc(Nc2ncc(C(=O)Nc3c(C)cccc3Cl)s2)cc(N2CCN(CCO)CC2)n1 on Calcium/calmodulin-dependent protein kinase type 1G (Homo sapiens), measured ΔTm was 0.5
